Listing of recorded self-cleavage kobs at 10000 uM GlcN6P by entry.
B1: glmS ribozyme (parent)
chain: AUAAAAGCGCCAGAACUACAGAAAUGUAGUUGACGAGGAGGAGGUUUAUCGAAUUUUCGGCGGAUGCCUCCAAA

- Variants of: B1
- Protocol summary: self-cleavage kobs at 10000 uM GlcN6P; higher = faster cleavage; RNA array
- Test conditions: with glucosamine-6-phosphate
Variants at the floor of the assay were thinned out.

Construct sequence | self-cleavage kobs at 10000 uM GlcN6P
AUAAAAGCGCCAGAACUACAGAAAUGUAGUUGACGAGGAGGAGGUUUAUCGACUUUUCGGCGGAUGCCUACAAA [A53C C70A] | 5.03e-05 s⁻¹
AUAAAAGCGCCAGAACUACAGAAAUGUAGUUGACGAGGAGGAGGUUUAACGAAUUUUCGGCUGAUGCCUCCAAA [U49A G62U] | < 1e-05 s⁻¹
AUAAAAGCGCCAGAACUACAGAAAUGUAGUUGGCGAGGAGGAGGUUUAUCGAAUUUUUGGCGGAUGCCUCCAAA [A33G C58U] | < 1e-05 s⁻¹

Look at this variant and give its reported self-cleavage kobs at 10000 uM GlcN6P. AUAAAAGCGCCAGAAGUACAGAAAUGUAGUUGACGAGGAGGAGGUUUAUCGAAUUUUCGGCGGAAGCCUCCAAA [C16G U65A]
0.00045 s⁻¹

Look at this variant and give its reported self-cleavage kobs at 10000 uM GlcN6P. AUAAAAGCGCAAGAACUACAGAAAUGUAGUUGACGAGGAGGAGGUUUAUCGAAUUUUCGGCGGAUGCCCCCAAA [C11A U69C]
4.97e-05 s⁻¹

Look at this variant and give its reported self-cleavage kobs at 10000 uM GlcN6P. AUAAAAGCGCCAGAACUACAGAAAUGUAGUUGACGAGGUGGAGGUUUAUCGAAUCUUCGGCGGACGCCUCCAAA [A39U U55C U65C]
0.00435 s⁻¹

Look at this variant and give its reported self-cleavage kobs at 10000 uM GlcN6P. AUAAAAUCGCCAGAACUACAGAAAUGUAGUUGAAGAGGAGGAGGUUUAUCGAAUUUUCGGCGGAUGCCUCCAAA [G7U C34A]
< 1e-05 s⁻¹

Look at this variant and give its reported self-cleavage kobs at 10000 uM GlcN6P. AUAAAAGCGCCAGAACUACAGAAAUGUAGUUGACCAGGAGGAGGUUUAUCGAAUUUUCAGUGGAUGCCUCCAAA [G35C G59A C61U]
< 1e-05 s⁻¹
